# target.under.test: T1, TNFR1 (Homo sapiens, UniProt P19438)
# T1 chain: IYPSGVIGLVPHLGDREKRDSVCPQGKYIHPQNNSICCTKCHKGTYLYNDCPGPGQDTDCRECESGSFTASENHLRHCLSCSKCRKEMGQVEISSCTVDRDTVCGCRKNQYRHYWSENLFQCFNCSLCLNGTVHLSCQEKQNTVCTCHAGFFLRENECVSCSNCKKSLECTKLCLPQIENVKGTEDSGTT
# protocol.summary: yeast display SC50
test.readout: apparent Kd (screen) (nM)

Worked cases, apparent Kd (screen) given:
Can you share its apparent Kd (screen)? I mean this binder: R97Y (designed binder) MTLQELLREEALRRAEAEAFRYALELLAEKFPEQKEYLLDLAEEIESQIRSLSGVDVEDVRKFLDKEWAWVKELLAEHPAELAEVEAARAARLAELYAEVEAKVAA
0.49

Item: K35I (designed binder) MTLQELLREEALRRAEAEAFRYALELLAEKFPEQIEYLLDLAEEIESQIRSLSGVDVEDVRKFLDKEWAWVKELLAEHPAELAEVEAARAARLAELRAEVEAKVAA
2.48

(A) A19H (designed binder) MTLQELLREEALRRAEAEHFRYALELLAEKFPEQKEYLLDLAEEIESQIRSLSGVDVEDVRKFLDKEWAWVKELLAEHPAELAEVEAARAARLAELRAEVEAKVAA
(B) L52E (designed binder) MTLQELLREEALRRAEAEAFRYALELLAEKFPEQKEYLLDLAEEIESQIRSESGVDVEDVRKFLDKEWAWVKELLAEHPAELAEVEAARAARLAELRAEVEAKVAA
Returns the identifier with the smallest measured apparent Kd (screen) among A and B . Respond with the label that goes with your answer.
A
(A: 0.718 nM, B: 24.4 nM)
